- System: IGROV1 ovarian
- Protocol Text: NCI tumour cell line growth inhibition, 48 h
Value Kind: TGI

Reference set (5 entries):
O=C1OC(=O)C2C1C1(c3ccccc3)C(c3ccccc3)=C(c3ccccc3)C2(c2ccccc2)S1=O (configuration not stated)    > 100 µM
O=C1c2ccccc2-c2c1c1ccccc1c(=O)n2CCNCCNCCn1c2c(c3ccccc3c1=O)C(=O)c1ccccc1-2    > 21.2 µM
CC(C)CCC[C@@H](C)C1CCC2[C@@H]3CCC4CC(CCC=C(c5cc(Cl)c(OC(=O)c6ccccc6)c(C(=O)O)c5)c5cc(Cl)c(OC(=O)c6ccccc6)c(C(=O)O)c5)CC[C@]4(C)C3CC[C@@]21C (some centres not stated)    94.3 µM
O=C(NC(=S)Nc1ccc(Cl)cc1)c1ccccc1    > 100 µM
CC(=O)OCC1OC(n2c(=O)n(-c3ccccc3)c(=O)c3ccccc32)C(OC(C)=O)C(OC(C)=O)C1OC(C)=O (configuration not stated)    > 100 µM

Field request: TGI | item: CN(C)c1ccc2c3c(c(=O)oc2c1)CCC3
> 100 µM

What do you have for COC12C=CC(CC1)C1C(=O)c3c(C)c(C)n(C)c3C(=O)C12 (configuration not stated) ?
> 100 µM

What do you have for O=[N+]([O-])c1cccc2nccc(NCC(O)CO)c12 (configuration not stated) ?
38.9 µM

What do you have for O=S(=O)(c1ccc(I)cc1)N(c1ccccc1)S(=O)(=O)C(F)(F)C(F)(F)C(F)(F)C(F)(F)F ?
> 100 µM

What do you have for O=C(CCCn1ccnc1[N+](=O)[O-])NCCn1ccnc1 ?
> 100 µM

What do you have for C[N+]1(C)CCC(C#N)(c2ccccc2)CC1 ?
> 100 µM

---

- Tested on: UACC-257 melanoma
- Protocol Text: NCI tumour cell line growth inhibition, 48 h
Below is a list of entries, each paired with its recorded TGI value.

Reference set (5 entries):
CC1NOC(=O)C1N=Nc1ccccc1Cl (stereo not given)    47 µM
O=C1CCCc2cc3c(cc21)CCC3C(=O)O (stereo not given)    > 100 µM
CCOC(=O)n1cncc1CC(NC(=O)Cc1c(C(=O)C=C(C)C)[nH]c2ccccc12)C(=O)OC (stereo not given)    28.2 µM
CCC1(N=[N+]=[N-])C(=O)Nc2cc(C)ccc2C1=O (stereo not given)    > 100 µM
C[N+]1(C)CCC(C#N)(c2ccccc2)CC1    > 100 µM

Continue with the compound presented below.
Field request: TGI | item: C[C@]12CC(c3ccccc3O1)C(C(=O)NC13CC4CC(CC(C4)C1)C3)C(=O)N2 (stereo not given in full)
> 100 µM

---

- Tested on: BT-549 breast
- Protocol Text: NCI tumour cell line growth inhibition, 48 h
Below is a list of entries, each paired with its recorded GI50 value.

Reference set (4 entries):
Cc1nc2cccc(NCc3ccc(C(=O)NO)cc3)c2c(=O)n1-c1ccccc1    2.8 µM
O=C1OC(=O)C2C1C1(c3ccccc3)C(c3ccccc3)=C(c3ccccc3)C2(c2ccccc2)S1=O (stereo not drawn)    26.3 µM
C[C@]12CC[C@@H]3c4ccc(O)cc4CC[C@H]3[C@@H]1CC[C@@H]2NS(=O)(=O)Cc1ccc(Cl)cc1    2.35 µM
CCSc1nc(N=Cc2cccs2)c2cn[nH]c2n1    > 100 µM

Field request: GI50 | item: OCCCCC#Cc1ccccc1C#Cc1ccccc1C(F)(F)F
17.1 µM

---

Below is a list of entries, each paired with its recorded TGI value.
- Test system: SK-MEL-28 melanoma
- Protocol Text: NCI tumour cell line growth inhibition, 48 h

Reference set (2 entries):
COC(=O)C1(O)c2ccccc2N=C2C(=O)c3ccccc3N21 (stereo not drawn)    > 100 µM
O=C1C(=O)c2ccccc2C(O)=C1C(CCc1ccccc1)C1=C(O)c2ccccc2C(=O)C1=O    > 100 µM

Continue with the compound presented below.
Field request: TGI | item: O=C1OC(=O)C2C1C1(c3ccccc3)C(c3ccccc3)=C(c3ccccc3)C2(c2ccccc2)S1=O (stereo not drawn)
> 100 µM

---

- Tested on: COLO 205 colon
- Protocol Text: NCI tumour cell line growth inhibition, 48 h
Value Kind: TGI (µM)
Your answer is read as µM, so omit the unit and give the number.

O=C(Oc1ccc(CCl)cc1)c1ccccc1    0.307
CN(c1ccccc1)C(c1ccccc1)C(O)c1ccccc1 (centres undefined)    30.1
Cc1nc2cccc(NCc3ccc(C(=O)NO)cc3)c2c(=O)n1-c1ccccc1    3.97

Field request: TGI | item: Cc1cc2c(s1)C(=O)c1sccc1C2=O
3.36

What do you have for COc1cccc(-c2nc3c(C(=O)NCCN(C)C)cccc3[nH]2)c1 ?
23.1

What do you have for COc1ccc(/C=C\c2cc(OC)c(OC)c(OC)c2)cc1OCC(=O)Nc1nc2ccc(C(F)(F)F)cc2s1 ?
68

What do you have for CC(C(=O)Oc1ccc2ccccc2c1-c1c(O)ccc2ccccc12)c1ccccc1 (centres undefined) ?
33.4

What do you have for O=C(C(Br)Br)C(Br)C(Br)c1ccccc1 (centres undefined) ?
3.59

---

- Test system: HT29 colon
- Protocol Text: NCI tumour cell line growth inhibition, 48 h
Below is a list of entries, each paired with its recorded GI50 value.

Reference set (3 entries):
C=C(CN1CCc2ccccc2C1)c1ccc(C(=O)Nc2ccc(N)cc2)cc1    19.6 µM
N.N.NC(CS)C(=O)[O-].NC(CS)C(=O)[O-].[Pt+4] (configuration not stated)    > 50 µM
COC(=O)/C(=C\c1c(C)[nH]c2ccccc12)S(=O)(=O)c1ccccc1    5.23 µM

Field request: GI50 | item: COc1ccc(-c2nc(-c3cn(C)c4ncccc34)cs2)cc1
17.3 µM

What do you have for O=C(Nc1ncc(Cc2ccccc2Cl)s1)c1ccc2c(c1)OCCO2 ?
0.616 µM

What do you have for COc1cc2c(/C=C3/C(=O)Nc4ccccc43)c(Cl)n(Cc3ccccc3[N+](=O)[O-])c2cc1C ?
1.93 µM

---

- Tested on: SNB-19 CNS
- Protocol Text: NCI tumour cell line growth inhibition, 48 h
Below is a list of entries, each paired with its recorded TGI value.

Reference set (5 entries):
C/C=C(\C)C(=O)O[C@H]1C=CC(=O)O[C@H]1CNC(=O)[C@H](C)O    > 100 µM
O=S(O)c1cc(Cl)cc(Cl)c1O    > 100 µM
C=C[C@H]1CN2CCc3c([nH]c4c([C@H]5CCCN5C)c(O)ccc34)[C@@H]2C[C@@H]1C[C@H]1c2[nH]c3ccccc3c2CCN1C    3.57 µM
O=S(=O)(O)c1c(N=Nc2c(O)ccc3ccccc23)ccc2ccccc12    > 100 µM
CCOC(=O)c1ccc(C(=O)/C(C#N)=C2\CCCN2)[nH]1    > 100 µM

Field request: TGI | item: CN(C)CCO/N=C1/C=C2CC[C@H]3[C@@H]4CC[C@H](O)[C@@]4(C)CC[C@@H]3[C@@]2(C)CC1
> 100 µM

What do you have for O=C1CC2(CCC(O)(c3ccc(Cl)cc3)C(C(=O)c3ccc(Cl)cc3)C2)C(=O)c2ccccc2N1 (configuration not stated) ?
6.71 µM

What do you have for CC(C)CC1c2[nH]c3ccccc3c2C[C@H]2C(=O)NC(CCC(=O)OC(C)(C)C)C(=O)N12 (some centres not stated) ?
> 100 µM

What do you have for CCCCc1c2c(nc3c1CCC/C3=C\c1ccccc1)C(=O)C(CN(C)C)CC2 (configuration not stated) ?
32.6 µM

What do you have for O=C(Nc1ncc(Cc2ccccc2Cl)s1)c1ccc2c(c1)OCCO2 ?
> 45.5 µM

---

Below is a list of entries, each paired with its recorded TGI value.
- Test system: HCC-2998 colon
- Protocol Text: NCI tumour cell line growth inhibition, 48 h

Reference set (2 entries):
C[C@]12CC(c3ccccc3O1)C(C(=O)NC13CC4CC(CC(C4)C1)C3)C(=O)N2 (stereo not given in full)    > 100 µM
Cc1sc2nc3n(c(=O)c2c1C)N=C(c1ccc(Cl)cc1)CS3    > 100 µM

Field request: TGI | item: O=C1CC2(CCC(O)(c3ccc(Cl)cc3)C(C(=O)c3ccc(Cl)cc3)C2)C(=O)c2ccccc2N1 (stereo not given)
> 100 µM

What do you have for COC(=O)CC1C(=O)OCc2c1cc1n(c2=O)Cc2c-1nc1ccccc1c2OC (stereo not given) ?
> 100 µM

What do you have for [C-]#[O+].[C-]#[O+].[Ir].[O-]c1cccc2cccnc12 ?
> 100 µM

What do you have for COc1ccc(-c2nc(-c3cn(C)c4ncccc34)cs2)cc1 ?
> 100 µM

What do you have for CC(O)C(O)C(N)CC=O (stereo not given) ?
> 500 µM

What do you have for Cc1ccc(S(=O)(=O)NNC(=S)Nc2cccc3ccccc23)cc1 ?
> 100 µM

What do you have for Cc1[nH]c(/C=C2\C(=O)Nc3ccc(F)cc32)c(C)c1C(=O)NC[C@H](O)CN1CCOCC1 ?
> 10 µM

What do you have for [N-]=[N+]=NC1C(Br)C(=O)NC(=O)N1[C@H]1C[C@H](O)[C@@H](CO)O1 (stereo not given in full) ?
> 100 µM

All figures here come from PubChem BioAssay (NCI).
